Molecular target: human CD3 (human, UniProt P07766 23-207; P04234 22-171; P09693 23-182)
Sequence (P07766 23-207, chain 1 of 3): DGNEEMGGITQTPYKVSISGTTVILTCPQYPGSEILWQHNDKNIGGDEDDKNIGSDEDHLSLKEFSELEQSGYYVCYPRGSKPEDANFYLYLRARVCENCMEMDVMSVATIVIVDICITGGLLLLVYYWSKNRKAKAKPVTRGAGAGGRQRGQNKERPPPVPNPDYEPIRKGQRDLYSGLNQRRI
Sequence (P04234 22-171, chain 2 of 3): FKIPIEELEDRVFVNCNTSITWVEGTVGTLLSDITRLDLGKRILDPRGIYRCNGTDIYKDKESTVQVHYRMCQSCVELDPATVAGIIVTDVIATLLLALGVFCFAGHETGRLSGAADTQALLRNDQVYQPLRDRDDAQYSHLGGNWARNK
Sequence (P09693 23-182, chain 3 of 3): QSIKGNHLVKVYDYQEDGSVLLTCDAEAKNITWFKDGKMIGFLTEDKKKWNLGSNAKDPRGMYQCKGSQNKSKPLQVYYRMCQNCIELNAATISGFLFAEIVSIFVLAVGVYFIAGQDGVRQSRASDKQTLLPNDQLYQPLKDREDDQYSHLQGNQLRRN
Experiment: cell-based or functional assay
value.type: EC50_Fold change (Jurkat-NFAT-luciferase activation, normalized to ch147E11E2)

q: Give the measured EC50_Fold change (Jurkat-NFAT-luciferase activation, normalized to ch147E11E2) of hu147E2-L1H3 (antibody, V domains shown, humanized 147E11E2; also called hu14E2-L1H3) VH: EVQLVQSGAEVKKPGSSVKVSCKASGYTFTSYWMHWVRQAPGQGLEWMGNINPSNGATNYNEKFKSRVTLTVDKSTSTAYMELSSLRSEDTAVYYCARDRSSQYYFDYWGQGTTVTVSS VL: DIVMTQSPDSLAVSLGERATINCKSSQSLLNSRSRKNYLAWYQQKPGQPPKLLIYWASTRESGVPDRFSGSGSGTDFTLTISSLQAEDVAVYYCTQSYTLRTFGGGTKVEIK .
a: 1.98 fold

q: Give the measured EC50_Fold change (Jurkat-NFAT-luciferase activation, normalized to ch147E11E2) of hu147E2-L3H4 (antibody, V domains shown, humanized 147E11E2; also called hu14E2-L3H4) VH: EVQLVQSGAEVKKPGSSVKVSCKASGYTFTSYWMHWVRQAPGQGLEWIGNINPSNGATNYNEKFKSRATLTVDKSTSTAYMELSSLRSEDTAVYYCARDRSSQYYFDYWGQGTTVTVSS VL: DIQMTQSPSSLSASVGDRVTITCKSSQSLLNSRSRKNYLAWYQQKPGKAPKLLIYWASTRESGVPSRFSGSGSGTDFTLTISSLQPEDFATYYCTQSYTLRTFGGGTKVEIK .
a: 2.12 fold

src = patent US20250223358A1
